target: hGIPR (Homo sapiens); experiment: Functional cAMP activation in the presence of 0.1% casein (no HSA); format: cell-based; conditions: in the presence of 0.1% casein (no HSA); geometric mean; read-out: Relative cAMP EC50, hGIPR;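 also: intracellular cAMP rise after 30 min at 37 °C read by HTRF against a standard curve, scaled between buffer alone (0%) and top control ligand concentration (100%), four-parameter fit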
Sequence (P48546 22-466): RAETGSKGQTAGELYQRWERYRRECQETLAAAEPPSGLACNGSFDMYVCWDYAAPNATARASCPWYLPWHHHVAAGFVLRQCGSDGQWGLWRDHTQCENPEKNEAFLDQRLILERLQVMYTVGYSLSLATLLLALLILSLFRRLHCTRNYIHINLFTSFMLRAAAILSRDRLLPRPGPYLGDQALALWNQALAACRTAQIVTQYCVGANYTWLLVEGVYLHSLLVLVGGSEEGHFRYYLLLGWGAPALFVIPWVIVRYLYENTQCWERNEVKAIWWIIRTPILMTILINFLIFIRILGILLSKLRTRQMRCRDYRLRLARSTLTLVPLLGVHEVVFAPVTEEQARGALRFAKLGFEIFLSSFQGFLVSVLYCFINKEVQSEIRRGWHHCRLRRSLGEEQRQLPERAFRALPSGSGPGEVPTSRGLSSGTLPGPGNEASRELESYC
Starred links: 1 amine or outer side, 2 acyl side, 3 side chain; linkers in the order of their positions; H or OH if unused. Non-standard residues stand in square brackets, D forms with d. Groups on a side chain read outwards from the residue. *: point of attachment. C18 diacid = O=C(O)CCCCCCCCCCCCCCCCC(=O)*; αMePhe(2-F) = C[C@](N)(Cc1ccccc1F)C(=O)O; γGlu = O=C(O)[C@H](CCC(=O)[*:2])N[*:1]; αMe4Pal = C[C@](N)(Cc1ccncc1)C(=O)O; αMeY = C[C@](N)(Cc1ccc(O)cc1)C(=O)O; 4Pal = N[C@@H](Cc1ccncc1)C(=O)O; αMeL = CC(C)C[C@](C)(N)C(=O)O; αMeS = C[C@](N)(CO)C(=O)O; Orn = NCCC[C@H](N)C(=O)O; AEEA = NCCOCCOCC(=O)O; Aib = CC(C)(N)C(=O)O
Readout label: EC50

# Substance, System name, Value reported
records = [
    ("H-Y[Aib]QGTFTSD[4Pal]S[Orn][αMeL]LDKK([AEEA-γGlu-C18 diacid])AQ[αMe4Pal]AFIE[αMe4Pal]LIEGGPSSGAPPPSGSEE-NH2 [Example 955]", "hGIPR (Homo sapiens)", "0.386 nM"),
    ("H-Y[Aib]QGTFTSDFSK[αMeL]LDKK([AEEA-γGlu-C18 diacid])AQ[Aib]AFIE[αMe4Pal]LIE[Aib]GPSSGAPPPSGS-NH2 [Example 912]", "hGIPR (Homo sapiens)", "0.0387 nM"),
    ("H-Y[Aib]QGTFTSDFSK[αMeL]LDKK([AEEA-AEEA-γGlu-C18 diacid])AQ[Aib]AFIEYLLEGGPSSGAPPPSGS-NH2 [Example 142]", "hGIPR (Homo sapiens)", "0.216 nM"),
    ("H-Y[Aib]QGTFTSD[4Pal]S[Orn][αMeL]LDKK([γGlu-AEEA-γGlu-C18 diacid])AQ[αMe4Pal]AFIEYLIE[Aib]GPSSGAPPPSGS-NH2 [Example 868]", "hGIPR (Homo sapiens)", "0.208 nM"),
    ("H-Y[Aib]QGT[αMePhe(2-F)]TSD[4Pal][αMeS]I[αMeL]LD[Orn]K([AEEA-γGlu-C18 diacid])AQ[αMe4Pal]EFI[dE][αMeY]LVEGGPSSGEPPPESE-NH2 [Example 1157]", "hGIPR (Homo sapiens)", "0.0124 nM"),
    ("H-Y[Aib]QGTFTSDFS[Orn][αMeL]LDKK([AEEA-γGlu-C18 diacid])AQ[Aib]AFIEWLLEGGHSSGAPPPSGT-NH2 [Example 171]", "hGIPR (Homo sapiens)", "0.2 nM"),
]
